For each entry below, report its protein stability index value.
B1: KCNA4 (parent)
chain: YQLGEEALLKFREDEGFVREEEDR

- Variants of: B1
- ASSAY_SUMMARY: protein stability index of a GFP-peptide fusion (GPS, HEK-293T) (PSI 1-6); higher = more stable;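 note: lentivirally expressed fusions sorted by FACS into six bins by GFP to DsRed ratio, PSI derived from sequencing read proportions per bin multiplied by bin number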
- CONDITION: c terminus: a fixed tail appended
Numbers only.

> print(dat)
    var  experimental.result
1  E20F                 3.64
2  K10P                 5.59
3   A7G                 4.64
4   E5C                 4.32
5  R12D                 5.54

The following variants each have a reported value; give each one's protein stability index.
1. D14Q
2. V18E
3. E6W
4. Q2T
5. D14P
6. R19T

3.88
4.67
1.97
5.31
3.16
4.65

Source listed as the supplement of paper PMC10567573.
